# setup conditions: amide bond; 42-membered ring; MESNa/TCEP (N-to-S acyl shift, NCL); then NH4HCO3 air oxidation; 0.1 M sodium phosphate pH 5.8; 50.0 °C; 2 steps
measured quantity: ring closure, yield after HPLC

Look up ring closure, yield after HPLC for this sequence: GFCHREYPPHCWPN
18%

Look up ring closure, yield after HPLC for this sequence: GFCTRENPPHCWPN
14%

Look up ring closure, yield after HPLC for this sequence: GFCTRSNPPHCWPN
15%

Look up ring closure, yield after HPLC for this sequence: GRCTRSIPPHCWPD
18%

Look up ring closure, yield after HPLC for this sequence: GFCHRSYPPHCWPN
15%
